Tested on: HOP-92
Assay: NCI tumour cell line growth inhibition, 48 h
Counter-ions that a name gives are not always drawn. Activity calls are given as the source filed them. Rule as the data show it: active = GI50 up to about 1.1 µM and inactive = higher.
Outcomes: y for active, n for inactive

compound | measurement target | label class
C=CCN1CCN([C@H](c2ccc(C(=O)N(CC)CC)cc2)c2cccc(OC)c2)CC1 | HOP-92 | n
Sc1nn2c(COc3cc(Cl)c(OCc4nnc5sc(S)nn45)cc3Cl)nnc2s1 | HOP-92 | n
COc1cc2c(cc1O)[C@H](Cc1ccc(Oc3cc(C[C@H]4c5cc(OC)c(OC)cc5CCN4C)ccc3OC)cc1)NCC2 | HOP-92 | n
C(=C/c1nnnn1-c1ccccc1)/Nc1ccccc1 | HOP-92 | n
c1ccc2c(c1)c1c3n2-c2cc(on2)C3CCC1 (stereo unspecified) | HOP-92 | n
CCOc1cc(C2CC(c3ccc(NS(=O)(=O)c4cc([N+](=O)[O-])ccc4C)cc3)=NN2S(=O)(=O)c2cc([N+](=O)[O-])ccc2C)ccc1O (stereo unspecified) | HOP-92 | n
COC(=O)C1=C(C)NC2(C)OC(C)(O)C(C(C)=O)C12C(C)=O (stereo unspecified) | HOP-92 | n
Cc1cc(O)c2c(c1)C(O)(c1ccc3c(c1O)C(=O)c1c(O)cc(C)cc1C3(O)C1OC(CO)C(O)C(O)C1O)c1cccc(O)c1C2=O (stereo unspecified) | HOP-92 | n
C/C(=C\c1ccc(Cl)cc1)C(C)(C)C(=O)O | HOP-92 | n
O=c1cccccc1NCCCNc1cccccc1=O | HOP-92 | n
CC1C(c2ccccc2)OP(=O)(OC(C#N)c2ccccc2)N1C (stereo unspecified) | HOP-92 | n
C=C(Cl)C(Cl)(CBr)CCC(Cl)C(C)(C)Cl (stereo unspecified) | HOP-92 | n
COc1cc(/C=N/c2nncs2)ccc1O | HOP-92 | n
C[n+]1cccc(NC(=O)c2ccc(NC(=O)C34CCC(C(=O)Nc5ccc(C(=O)Nc6ccc[n+](C)c6)cc5)(CC3)CC4)cc2)c1 | HOP-92 | n
O=[N+]([O-])/C(C(Cl)=C(Cl)Cl)=C(/Cl)SCc1ccccc1 | HOP-92 | n
COc1ccc2c(c1)CN1C(=N2)CSC1c1ccccc1Cl (stereo unspecified) | HOP-92 | n
CCc1ccc2c(c1)N(CC(C)CN(C)C)c1ccccc1S2 (stereo unspecified) [ETYMEMAZINE HYDROCHLORIDE] | HOP-92 | n
CN1OC2OC(=O)OC2[C@H]1[C@H]1O[C@H](c2ccccc2)OC1(C)c1cc(OC(=O)c2ccccc2)ccc1OC(=O)c1ccccc1 (stereo partly specified) | HOP-92 | n
CC(C)OC(=O)c1ccc(CCC2=CC(=O)C=CC2=O)cc1 | HOP-92 | n
CC1(C)CC(C)(C)C1=NNC(N)=O | HOP-92 | n
N#CC(NC12CC3CC(CC(C3)C1)C2)c1ccccc1 (stereo unspecified) | HOP-92 | n
Cc1ccc(C)c(NC(=O)C(Cc2c[nH]c3ccccc23)NC(=O)OCc2ccccc2)c1 (stereo unspecified) | HOP-92 | n
Cc1cc(Cl)ccc1N1C(=O)C(=O)C(c2nc3ccccc3o2)C(=O)C1=O | HOP-92 | n
CC(=O)OCC12C(OC(C)=O)C[C@@H](C)C3(CC(c4ccoc4)OC3=O)C1CCC(OC(C)=O)C21CO1 (stereo partly specified) | HOP-92 | n
O=[N+]([O-])c1cccc2nc3ccccc3c(NCCC[N+]3([O-])CCCCC3)c12 | HOP-92 | y
CN1C[C@H]2[C@@H](C1=O)[C@H](c1ccccc1)ON2C | HOP-92 | n
